target: SCRIB_3, Q14160; test: holdup assay; parameters: key: below the threshold = too weak to quantify, mostly under pKd 3.1 to 4; conditions: plain residues with an end cap or a label only (N-terminal biotin on a linker: ado-ado)
Sequence (Q14160 999-1103): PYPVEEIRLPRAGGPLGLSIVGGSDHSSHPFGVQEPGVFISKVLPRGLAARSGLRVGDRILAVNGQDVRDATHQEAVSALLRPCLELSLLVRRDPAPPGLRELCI
Returns Yes if the recorded pKd is greater than or equal to 4, and No otherwise.

{"columns": ["BINDER", "CAT"],
 "data": [
  ["AKPSRISTVV [IQSEC2, Q5JU85]", "No"],
  ["GQEEQVTTRL [TRPC5, Q9UL62]", "Yes"],
  ["DDEDRLVIEI [ZNF831, Q5JPB2]", "No"],
  ["LRSPRTPSEV [OR10G3, Q8NGC4]", "No"],
  ["SAAKVLTSMC [GHRHR, Q02643]", "No"],
  ["QGLAERISVL [PRKD2, Q9BZL6]", "Yes"],
  ["VNKSKLLTDV [KCNA1, Q09470]", "No"],
  ["VKPQVSESKL [ACOT8, O14734]", "Yes"],
  ["TKGPRGPTRV [SAPCD1, Q5SSQ6]", "No"],
  ["QSARLWETSI [ADAM22, Q9P0K1]", "Yes"],
  ["SGSLKLMTTV [DACT1, Q9NYF0]", "No"]
]}
